Source listed as the supplement of paper PMC11246515.

Test: total protein half-life in vivo (active degradation + dilution); higher = more stable protein
Conditions: wild type E. coli NCM3722; growth: C-lim chemostat; doubling time 3 h
Assignment: determine reported total protein half-life in vivo for the given sequences.

Given the sequence "MPHNPIRVVVGPANYFSHPGSFNHLHDFFTDEQLSRAVWIYGKRAIAAAQTKLPPAFGLPGAKHILFRGHCSESDVQQLAAESGDDRSVVIGVGGGALLDTAKALARRLGLPFVAVPTIAATCAAWTPLSVWYNDAGQALHYEIFDDANFMVLVEPEIILNAPQQYLLAGIGDTLAKWYEAVVLAPQPETLPLTVRLGINNAQAIRDVLLNSSEQALSDQQNQQLTQSFCDVVDAIIAGGGMVGGLGDRFTRVAAAHAVHNGLTVLPQTEKFLHGTKVAYGILVQSALLGQDDVLAQLTGAYQRFHLPTTLAELEVDINNQAEIDKVIAHTLRPVESIHYLPVTLTPDTLRAAFKKVESFKA" , write its reported total protein half-life in vivo.
2.67 h

Return the recorded total protein half-life in vivo value; entry: "MSWQEKINAALDARRAADALRRRYPVAQGAGRWLVADDRQYLNFSSNDYLGLSHHPQIIRAWQQGAEQFGIGSGGSGHVSGYSVVHQALEEELAEWLGYSRALLFISGFAANQAVIAAMMAKEDRIAADRLSHASLLEAASLSPSQLRRFAHNDVTHLARLLASPCPGQQMVVTEGVFSMDGDSAPLAEIQQVTQQHNGWLMVDDAHGTGVIGEQGRGSCWLQKVKPELLVVTFGKGFGVSGAAVLCSSTVADYLLQFARHLIYSTSMPPAQAQALRASLAVIRSDEGDARREKLAALITRFRAGVQDLPFTLADSCSAIQPLIVGDNSRALQLAEKLRQQGCWVTAIRPPTVPAGTARLRLTLTAAHEMQDIDRLLEVLHGNG"
3.07 h

Please supply the value of reported total protein half-life in vivo for the item "MSNKMTGLVKWFNADKGFGFISPVDGSKDVFVHFSAIQNDNYRTLFEGQKVTFSIESGAKGPAAANVIITD"
2.03 h
